Value kind: logP
No unit in the answer, only the number.

Entry under test: `Nc1nc(N)nc(Cl)n1` . Its logP was 0.11

Form field logP, entry `CCNc1nc(NCC)[nH]c(=O)n1` : 0.35

The recorded logP for entry `CCNc1nc(N)nc(OC)n1` equals 0.83

What the record says about `Nc1nc(N)nc(N)n1` : logP is -0.4

Entry `CCNc1nc(N=[N+]=[N-])nc(NC(C)C)n1` , logP reported as 2.57

Record `CC(C)(C)Nc1nc(N)[nH]c(=O)n1` . Reported logP: 0.43

# logP (compound: `Nc1nc(N)nc(NC2CC2)n1` ) is 0.05

# compound `COc1nc(N)nc(NC(C)(C)C)n1` ; its logP = 1.93

So for `CC(C)Nc1nc(N)[nH]c(=O)n1` , the logged logP turned out to be -0.08

Value of measured logP for the entry `COc1nc(NC(C)C)nc(NC(C)C)n1` : 2.6

`CCN(CC)c1nc(N)nc(Cl)n1` has a reported logP of 2.12

The compound `Nc1nc(N)[nH]c(=O)n1` showed logP equal to -0.46

Per the records, this compound ( `Cc1nnc(-c2ccccc2)c(=O)n1N` ) has logP equal to 0.98

Summary for this compound, `CNc1nc(NC)nc(NC(C)C)n1` : logP is 1.87

Please fill in: logP reported for `CCNc1nc(NC(C)C)nc(=O)[nH]1` = 0.76

Given item CCC(C)Nc1nc(N)nc(Cl)n1 (centres undefined) , the value recorded as its logP is 1.78

Quick note, logP for `CCNc1nc(NC(C)(C)C)nc(=O)[nH]1` landed at 1.5

The compound identified as `O=c1[nH]c(=O)[nH]c(=O)[nH]1` registered its logP at -0.47

Entry `CCNc1nc(N)nc(=O)[nH]1` ; logP = -0.3
